# assay.system: Metabotropic glutamate receptor 5 (Homo sapiens, UniProt P41594)
# Sequence (P41594 whole entry): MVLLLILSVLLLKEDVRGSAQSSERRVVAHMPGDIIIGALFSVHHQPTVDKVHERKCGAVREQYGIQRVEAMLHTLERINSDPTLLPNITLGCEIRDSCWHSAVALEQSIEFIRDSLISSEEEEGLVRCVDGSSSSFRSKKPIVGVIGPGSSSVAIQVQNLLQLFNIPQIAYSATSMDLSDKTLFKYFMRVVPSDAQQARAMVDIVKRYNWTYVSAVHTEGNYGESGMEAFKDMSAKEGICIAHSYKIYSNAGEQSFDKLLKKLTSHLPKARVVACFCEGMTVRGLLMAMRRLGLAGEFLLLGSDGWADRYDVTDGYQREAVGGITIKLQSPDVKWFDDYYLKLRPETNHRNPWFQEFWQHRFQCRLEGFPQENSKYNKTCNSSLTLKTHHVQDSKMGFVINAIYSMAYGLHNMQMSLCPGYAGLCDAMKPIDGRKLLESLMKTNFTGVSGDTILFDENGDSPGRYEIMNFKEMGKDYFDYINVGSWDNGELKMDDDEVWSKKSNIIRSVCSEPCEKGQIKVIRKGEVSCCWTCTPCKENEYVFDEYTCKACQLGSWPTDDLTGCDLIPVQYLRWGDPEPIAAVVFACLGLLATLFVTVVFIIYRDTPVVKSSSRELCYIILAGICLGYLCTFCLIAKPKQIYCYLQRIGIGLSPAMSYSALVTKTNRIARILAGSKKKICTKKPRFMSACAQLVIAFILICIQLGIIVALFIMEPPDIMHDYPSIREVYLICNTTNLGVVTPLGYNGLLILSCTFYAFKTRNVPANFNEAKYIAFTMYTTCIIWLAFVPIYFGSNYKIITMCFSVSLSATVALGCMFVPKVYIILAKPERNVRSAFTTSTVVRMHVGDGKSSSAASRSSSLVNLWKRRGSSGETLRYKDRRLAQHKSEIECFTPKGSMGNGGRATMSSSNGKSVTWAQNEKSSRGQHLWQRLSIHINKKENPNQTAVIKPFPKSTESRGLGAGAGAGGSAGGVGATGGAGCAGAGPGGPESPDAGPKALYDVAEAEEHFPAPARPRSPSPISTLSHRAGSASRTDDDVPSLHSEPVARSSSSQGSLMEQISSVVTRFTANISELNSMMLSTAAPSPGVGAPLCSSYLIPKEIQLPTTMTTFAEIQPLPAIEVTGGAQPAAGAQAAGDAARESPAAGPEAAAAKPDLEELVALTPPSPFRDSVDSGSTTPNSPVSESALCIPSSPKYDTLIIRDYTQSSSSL
# procedure.text: Negative allosteric modulatory activity at human cloned mGluR5 receptor expressed in CHO-T-Rex cells assessed as inhibiton of quisqualate-induced calcium mobilization treated 10 mins prior to agonist application by fluorescence analysis
measured.metric: pIC50
Keep in mind that pIC50 stands for -log10 of concentration in molar terms.

> print(dat)
                                   compound   val
1  C=Cc1ccc([N+](=O)[O-])c(N2CCN(C(=O)C#Cc3ccccc3)CC2)n1  7.38
2  CN1CC(=O)N=C1NC(=O)Nc1cccc(Cl)c1 [FENOBAM ANHYDROUS]  7.44
3  Cc1ccc([N+](=O)[O-])c(N2CCC(=CC#Cc3ccc(C#N)cn3)CC2)n1  8.89

Now for another entry.
Query :: I would be grateful if you could share the reported pIC50 for "Cc1cccc(C#CC=C2CCN(c3ncccc3[N+](=O)[O-])CC2)c1" .
Result :: 8.74

---

Reported IC50 values are given for each entry in this list.
# assay.system: Metabotropic glutamate receptor 1 (Rattus norvegicus)
# Sequence (P23385 whole entry): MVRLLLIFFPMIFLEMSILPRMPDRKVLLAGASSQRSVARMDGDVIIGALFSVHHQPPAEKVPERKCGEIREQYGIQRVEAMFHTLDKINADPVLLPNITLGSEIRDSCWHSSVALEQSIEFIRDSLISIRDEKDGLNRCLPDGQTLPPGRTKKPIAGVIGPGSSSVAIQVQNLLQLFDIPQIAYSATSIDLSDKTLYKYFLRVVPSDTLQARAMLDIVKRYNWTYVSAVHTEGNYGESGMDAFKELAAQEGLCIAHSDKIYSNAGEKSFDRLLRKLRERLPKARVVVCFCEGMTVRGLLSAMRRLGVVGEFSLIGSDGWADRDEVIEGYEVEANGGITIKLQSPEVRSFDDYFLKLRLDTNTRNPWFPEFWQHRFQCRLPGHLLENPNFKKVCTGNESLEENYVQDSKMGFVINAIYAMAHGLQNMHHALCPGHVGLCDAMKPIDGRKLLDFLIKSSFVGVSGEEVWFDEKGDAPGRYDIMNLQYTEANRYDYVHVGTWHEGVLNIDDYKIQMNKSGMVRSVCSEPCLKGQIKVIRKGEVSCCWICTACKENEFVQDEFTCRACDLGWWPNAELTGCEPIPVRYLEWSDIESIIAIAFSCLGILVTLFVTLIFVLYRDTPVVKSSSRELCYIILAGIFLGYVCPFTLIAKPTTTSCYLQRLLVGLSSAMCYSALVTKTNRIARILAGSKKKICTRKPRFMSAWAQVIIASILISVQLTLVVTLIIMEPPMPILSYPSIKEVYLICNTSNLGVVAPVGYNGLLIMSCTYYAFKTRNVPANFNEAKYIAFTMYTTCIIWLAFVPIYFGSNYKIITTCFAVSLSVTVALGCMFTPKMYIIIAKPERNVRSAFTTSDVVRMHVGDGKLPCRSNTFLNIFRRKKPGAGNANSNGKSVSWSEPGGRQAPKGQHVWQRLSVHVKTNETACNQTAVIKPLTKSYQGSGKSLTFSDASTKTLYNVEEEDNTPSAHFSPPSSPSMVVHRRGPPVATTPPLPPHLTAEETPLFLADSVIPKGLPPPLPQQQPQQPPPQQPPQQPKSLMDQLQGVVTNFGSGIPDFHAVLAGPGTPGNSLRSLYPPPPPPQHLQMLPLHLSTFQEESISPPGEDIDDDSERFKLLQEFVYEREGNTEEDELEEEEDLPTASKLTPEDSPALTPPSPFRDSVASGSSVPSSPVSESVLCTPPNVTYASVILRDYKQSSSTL
# procedure.text: Negative allosteric modulatory activity at rat cloned mGluR1 receptor expressed in CHO-T-Rex cells assessed as inhibiton of quisqualate-induced calcium mobilization treated 10 mins prior to agonist application by fluorescence analysis
Answer in nM, number only, no unit symbol.

Query :: I'd like to know its IC50. The molecule in question is "Cc1cccc(C#CC=C2CCN(c3ncccc3[N+](=O)[O-])CC2)c1"
Result :: 543

Query :: IC50 for "O=C(C#Cc1ccccc1)N1CCN(c2ncccc2[N+](=O)[O-])CC1" ?
Result :: 271

Query :: Report IC50 for "Cc1cccc(C#CC=C2CCN(c3ccccc3[N+](=O)[O-])CC2)n1" please.
Result :: 551

Query :: Tell me the measured IC50 of "Cc1cccc(C#CC=C2CCN(c3ncccc3[N+](=O)[O-])CC2)n1" , please.
Result :: 448

Query :: Any idea what its IC50 is? The molecule is "O=[N+]([O-])c1cccnc1N1CCC(=CC#Cc2ccccc2)CC1"
Result :: 39.3

Query :: GET /values?readout=IC50&item= "O=[N+]([O-])c1cccnc1N1CCC(=CC#Cc2ccccn2)CC1"
Result :: 207
